Each record here notes measured clearance.
# procedureDetails: Clearance in female BALB/c mouse blood at 1 mg/kg, iv measured after 24 hrs by LC-MS/MS analysis
# Type: ADME, organism-based
// return numeric value only (unit: mL/min/kg, not printed)

The following molecules have reported results that may help.
Given the entry CCn1c(-c2cc(N3CC4CC(C3)N4C)cnc2[C@H](C)OC)c2c3cc(ccc31)-c1csc(n1)C[C@H](NC(=O)[C@H]1C[C@@H]1C)C(=O)N1CCC[C@H](N1)C(=O)OCC(C)(C)C2 , report its measured clearance.
16.7

Requested field: clearance. Item: CCn1c(-c2cc(N3CCN(C4COC4)CC3)cnc2[C@H](C)OC)c2c3cc(ccc31)-c1csc(n1)C[C@H](NC(=O)[C@H]1C[C@@H]1C)C(=O)N1CCC[C@H](N1)C(=O)OCC(C)(C)C2
6.67

Name the reported clearance value associated with the molecule CCn1c(-c2cc(N3CCN(C4CC4)CC3)cnc2[C@H](C)OC)c2c3cc(ccc31)-c1csc(n1)C[C@H](NC(=O)[C@H]1[C@@H]3COC[C@@H]31)C(=O)N1CCC[C@H](N1)C(=O)OCC(C)(C)C2
6.67

Quick one: clearance of CCn1c(-c2cc(N3CCN(C)CC3)cnc2[C@H](C)OC)c2c3cc(ccc31)-c1csc(n1)C[C@H](NC(=O)[C@H]1C[C@@H]1C)C(=O)N1CCC[C@H](N1)C(=O)OCC(C)(C)C2 ?
8.33

From here, focus on the item given below.
Can you share its clearance? I mean this molecule: CCn1c(-c2cc(N3CCN(CCOC)CC3)cnc2[C@H](C)OC)c2c3cc(ccc31)-c1csc(n1)C[C@H](NC(=O)[C@H]1C[C@@H]1C)C(=O)N1CCC[C@H](N1)C(=O)OCC(C)(C)C2
6.67

###

# procedureDetails: Oral bioavailability in male Sprague-Dawley rat at 60 mg/kg measured after 24 hrs by LC-MS/MS analysis
# Assay type: ADME, organism-based
# details: in vivo
measuredQuantity: bioavailability
Form field: result (number plus unit)

Looking for the measured bioavailability of CCn1c(-c2cc(N3CCN(C)CC3)cnc2[C@H](C)OC)c2c3cc(ccc31)-c1csc(n1)C[C@H](NC(=O)[C@H]1C[C@@H]1C)C(=O)N1CCC[C@H](N1)C(=O)OCC(C)(C)C2 , can you help?
27%

###

# procedureDetails: Kinetic solubility of compound in PBS at pH 7.4 measured after 5 hrs by UV analysis
# Assay type: physicochemical
# details: read-out: Kinetic_solubility
Tag: YES if measured solubility kinetic at 5 h is not below 20 µM, NO if it is.

Solved entries (count: 3):
Does solubility kinetic at 5 h meet or surpass 20 µM for CCn1c(-c2cc(N3CCN(C)CC3)cnc2[C@H](C)OC)c2c3cc(ccc31)-c1csc(n1)C[C@H](NC(=O)[C@H]1C[C@@H]1C)C(=O)N1CCC[C@H](N1)C(=O)OCC(C)(C)C2 ?
YES

Dear colleague, could you confirm whether CCn1c(-c2cc(N3CCN(C4CC4)CC3)cnc2[C@H](C)OC)c2c3cc(ccc31)-c1csc(n1)C[C@H](NC(=O)[C@H]1C[C@@H]1C)C(=O)N1CCC[C@H](N1)C(=O)OCC(C)(C)C2 has solubility kinetic at 5 h at or above 20 µM?
NO

Record CCn1c(-c2cc(N3CCN(C)CC3)cnc2[C@H](C)OC)c2c3cc(ccc31)-c1csc(n1)C[C@H](NC(=O)[C@H]1[C@@H]3COC[C@@H]31)C(=O)N1CCC[C@H](N1)C(=O)OCC(C)(C)C2 ; criterion: solubility kinetic at 5 h no lower than 20 µM. Met?
YES

Further cases:
For this compound, is measured solubility kinetic at 5 h 20 µM or higher? CCn1c(-c2cc(N3CCN(C)CC3)cnc2[C@H](C)OC)c2c3cc(ccc31)-c1csc(n1)C[C@H](NC(=O)[C@H]1CCO1)C(=O)N1CCC[C@H](N1)C(=O)OCC(C)(C)C2
YES

Given the entry CCn1c(-c2cccnc2[C@H](C)OC)c2c3cc(ccc31)-c1csc(n1)C[C@H](NC(=O)[C@H](C(C)C)N(C)C(C)=O)C(=O)N1CCC[C@H](N1)C(=O)OCC(C)(C)C2 , answer whether its solubility kinetic at 5 h meets or surpasses 20 µM.
NO
